Data provenance is PubChem BioAssay AID1159580.

Experiment: chemical genetic growth profiling, strain panel (AID 1159580);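 further: tested at 20 µM; growth read once vehicle control cultures reached saturation at 30 °C; 1 = growth at the plate median or of vehicle wells; lower values mean less growth of the strain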
Conditions: S. cerevisiae deletion strains, growth OD, locus YGL173C, strain kem1
Hit rate of the full screen: of about 5,500 compounds, about 2,000 (36%) were called active. Another 18% or so got no clear call; they are omitted. No stated cut-off is given here; in the data, active means normalized growth mostly below about 0.91 (no sharp cut-off); inconclusive means no clear call, values can overlap the other calls; inactive means mostly above about 0.92. The list shows a part of the results.
Choose the fitting class; nothing outside label 1 = active, label 0 = inactive is accepted.

| COMPOUND | DISCRETE LABEL |
| --- | --- |
| Cc1cc(N)c2ccccc2[n+]1CCCCCCCCCC[n+]1c(C)cc(N)c2ccccc21 | label 1 |

# input GET /call?item= Cc1ccc(-c2nc3ccc(C)cn3c2CC(=O)N(C)C)cc1 returns the recorded outcome of this test.
# output label 0

# input For CC1=CC(=O)C2C(C)(C)CCC[C@]2(C)[C@@]1(O)CCc1ccoc1 (stereo partly specified) , what call appears in the results of this test?
# output label 0

# input I'd appreciate the recorded outcome for COc1cc2c(cc1OC)-c1c(oc3cc(O)cc(O)c3c1=O)CO2 from this test.
# output label 0

# input # outcome recorded in this test, key = CC(=O)OCC(=O)[C@@]1(O)CCC2C3C[C@H](C)C4=CC(=O)C=CC4(C)C3[C@@H](O)CC21C (stereo partly specified)
# output label 0

# input Fill in: this test's call for CC1(C)Oc2ccc3ccc(=O)oc3c2CC1O (stereo unspecified) is ___
# output label 0

# input Dear all, I need the recorded test outcome for CC(=O)O[C@@H]1c2c(ccc3ccc(=O)oc23)OC(C)(C)[C@@H]1OC(=O)CC(C)C , thank you.
# output label 0

# input For COC(=O)N/N=C\c1c[n+]([O-])c2ccccc2[n+]1[O-] , what call appears in the results of this test?
# output label 0

# input Fill in: this test's call for COC(=O)C[C@H]1C(C)(C)[C@@H](O)[C@@H]2CC3=C4CC(O)O[C@@H](c5ccoc5)[C@]4(C)CCC3[C@@]1(C)C2=O (stereo partly specified) is ___
# output label 0

# input What was the test verdict on C/C=C(\C)C(=O)O[C@@H]1c2c(ccc3ccc(=O)oc23)OC(C)(C)[C@@H]1OC(C)=O ?
# output label 0

# input Short answer needed: outcome of this test for COC1CC(O[C@H]2CC[C@]3(C=O)C4CC[C@]5(C)C(C6=CC(=O)OC6)CC[C@]5(O)C4CC[C@]3(O)C2)OC(C)C1O (stereo partly specified) ?
# output label 0

# input Each compound tested received a call. Report the one for CC(=O)Oc1ccccc1C(=O)Oc1ccccc1C(=O)O .
# output label 0

# input Look up the recorded call for COc1cc(O)c2c(=O)cc(-c3ccc(OC)c(-c4c(O)cc(O)c5c(=O)cc(-c6ccc(O)cc6)oc45)c3)oc2c1 in this test.
# output label 0

# input # lookup: test call for CCc1ccc2c(O)c3c(cc2c1C(=O)OC)C(=O)c1c(O)ccc(O)c1C3=O
# output label 0

# input Per the records of this test, what outcome belongs to COc1cc(C(=O)N2CCOCC2)cc(OC)c1OC ?
# output label 0

# input What did this assay record as the result for COc1ccc(-c2cc(=O)c3c(O)cc(O)c(-c4cc(-c5cc(=O)c6c(O)cc(O)cc6o5)ccc4OC)c3o2)cc1 ?
# output label 0

----------
Assay: chemical genetic growth profiling, strain panel (AID 1159580);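 further: tested at 20 µM; growth read once vehicle control cultures reached saturation at 30 °C; 1 = growth at the plate median or of vehicle wells; lower values mean less growth of the strain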
Settings: S. cerevisiae deletion strains, growth OD, locus YNL322C, strain KRE1, hits give low values
Among all 5,500 compounds or so, about 2,000 (36%) were called active. Another 18% or so got no clear call; they are omitted. The list shows a part of the results.
This section presents compounds with their documented normalized growth values.
Hey, just send me the number, nothing else.

Example entries and their recorded answers appear below.
| COMPOUND | EXPERIMENTAL VALUE |
| --- | --- |
| CC(C)c1cccc(C(C)C)c1O | 1.01 |
| C[C@H]1[C@H](C)CC[C@]2(C(=O)O)CC[C@]3(C)C(=CCC4[C@@]5(C)C[C@@H](O)[C@H](O)[C@@](C)(CO)C5[C@H](O)C[C@]43C)[C@H]12 (some centres undefined) | 0.984 |
| COC(=O)Cc1cc(OC)c(OC)cc1[N+](=O)[O-] | 1.01 |
| CC(=O)O[C@@H]1CC2C(C)(CC[C@H](O)C2(C)C)C2CC[C@]3(C)C(=CC(=O)O[C@H]3c3ccoc3)C21C (some centres undefined) | 1.01 |
| N#CC(=C(\N)Sc1ccccc1N)/C(C#N)=C(/N)Sc1ccccc1N | 0.988 |

# input Specify normalized growth for Oc1ccc2c3c1OC1[C@@H](O)CC[C@@]4(O)[C@@H](C2)N(CC2CCC2)CC[C@]314 (some centres undefined) and stop.
# output 1.01

# input Let me know recorded normalized growth for N#CCS(=O)(=O)c1cccs1 , thanks.
# output 1.02

# input Determine its reported normalized growth: COC1CC(O[C@H]2CC[C@]3(C=O)C4CC[C@]5(C)C(C6=CC(=O)OC6)CC[C@]5(O)C4CC[C@]3(O)C2)OC(C)C1O (some centres undefined)
# output 1.02

# input Report measured normalized growth; entry is O=[N+]([O-])c1cnc2ccccn12
# output 1.02

# input Write down normalized growth measured for item Cc1c(OCC(F)(F)F)ccnc1CS(=O)c1nc2ccccc2[nH]1 (centres undefined)
# output 0.998

# input Quick one: give measured normalized growth for O=C(NCCCCO)OCC1c2ccccc2-c2ccccc21
# output 1

# input Fill in reported normalized growth for this entry: CO[C@H]1[C@H](O)[C@@H](O[C@H]2CC[C@]3(C=O)C4CC[C@]5(C)[C@@H](C6=CC(=O)OC6)CC[C@]5(O)C4CC[C@@H]3C2)O[C@@H](C)[C@@H]1O (some centres undefined)
# output 0.989

# input Dear colleague, please send me the reported normalized growth for COc1cc([N+](=O)[O-])c(OC)cc1SCC(=O)NNC(=O)c1cc(OC)c(OC)c(OC)c1 when you can.
# output 0.98

# input Give the measured normalized growth for CC(=O)OCC(=O)[C@@]1(O)CCC2C3C[C@H](C)C4=CC(=O)C=CC4(C)C3[C@@H](O)CC21C (some centres undefined)
# output 1

# input Recall and state the measured normalized growth for C[C@@H]1CC[C@@]23CCC4(C)[C@@](C=CC5[C@@]6(C)CCC(=O)C(C)(C)C6CC[C@]54C)(OC2=O)C3[C@H]1C (some centres undefined) .
# output 1.01

# input Dear colleague, please send me the reported normalized growth for O=C(O)c1oc(C(=O)O)c(OCc2ccccc2)c1OCc1ccccc1 when you can.
# output 0.963

# input Return value of normalized growth for input CC(=O)N1CCCC1C(=O)O (centres undefined) , no commentary.
# output 1.01

# input Tell me measured normalized growth for CNC[C@H](O)c1cccc(O)c1 please.
# output 1

# input Report normalized growth, nothing else, for this compound: CC(=O)N1CCN(c2ccc(OC[C@H]3CO[C@](Cn4ccnc4)(c4ccc(Cl)cc4Cl)O3)cc2)CC1
# output 0.0931
